Each record here notes measured Papp.
assay.method.text: physchem
Parameters: dose or concentration left out as unconfirmed
conditions.used: PAMPA, pH 5
Structures can show the parent of a compound that is named as a salt.
Please reply with the bare figure in ×10⁻⁶ cm/s and do not write the unit itself.

Below: 3 molecules and their reported Papp.
molecule	assay.result
CC[C@@]1(O)C(=O)OCc2c1cc1n(c2=O)Cc2c-1nc1cc(F)c(C)c3c1c2[C@@H]([C@@H](CCO)N(C)C)CC3 (single isomer, unassigned)	36.6
CC[C@@]1(O)C(=O)OCc2c1cc1n(c2=O)Cc2c-1nc1cc(F)c(C)c3c1c2[C@H]([C@@H](CO)NC(C)C)CC3 (single isomer, unassigned)	10.5
CC[C@@]1(O)C(=O)OCc2c1cc1n(c2=O)Cc2c-1nc1cc(F)c(C)c3c1c2[C@H]([C@H](CCO)N(C)C)CC3 (single isomer, unassigned)	27

Now let's try a different one.
Problem: Fill in the blank: the reported Papp of CC[C@@]1(O)C(=O)OCc2c1cc1n(c2=O)Cc2c-1nc1cc(F)c(C)c3c1c2[C@@H]([C@H](N)CO)CC3 (single isomer, unassigned) [Compound 16-105, hydrochloride] is ____.
Result: 0.07

----------
assay.method.text: Human liver microsome clearance (HLM CL)
Type: in vitro ADME
Parameters: dose or concentration left out as unconfirmed
conditions.used: human, microsomes
Where a name gives a salt, the structure may show the parent alone.
measurement.label: half-life (h)
Please reply with the bare figure in h and do not write the unit itself.

Below: 2 compounds and their reported half-life.
compound	half-life [h]
CC[C@@]1(O)C(=O)OCc2c1cc1n(c2=O)Cc2c-1nc1cc(F)c(C)c3c1c2[C@@H]([C@H](CCO)N(C)C)CC3 (single isomer, unassigned) [Compound 15-96]	1.6
CC[C@@]1(O)C(=O)OCc2c1cc1n(c2=O)Cc2c-1nc1cc(F)c(C)c3c1c2[C@@H]([C@H](CO)NC(C)C)CC3 (single isomer, unassigned) [Compound 17-112]	1.03

Problem: Fill in the blank: the reported half-life of CC[C@@]1(O)C(=O)OCc2c1cc1n(c2=O)Cc2c-1nc1cc(F)c(C)c3c1c2[C@H]([C@H](N)CO)CC3 (single isomer, unassigned) [Compound 16-111, hydrochloride] is ____.
Result: 1.72

Problem: Fill in the blank: the reported half-life of CC[C@@]1(O)C(=O)OCc2c1cc1n(c2=O)Cc2c-1nc1cc(F)c(C)c3c1c2[C@@H]([C@@H](CO)NC(C)C)CC3 (single isomer, unassigned) [Compound 17-113] is ____.
Result: 0.533

----------
assay.method.text: PAMPA (Parallel Artificial Membrane Permeability Assay)
Set-up: dose or concentration left out as unconfirmed
conditions.used: pH 7.4
measurement.label: Papp (×10⁻⁶ cm/s)
Please reply with the bare figure in ×10⁻⁶ cm/s and do not write the unit itself.

Problem: Fill in the blank: the reported Papp of CC[C@@]1(O)C(=O)OCc2c1cc1n(c2=O)Cc2c-1nc1cc(F)c(C)c3c1c2[C@@H](N)CC3 [Exatecan] is ____.
Result: 16.3

----------
assay.method.text: physchem
Design: dose or concentration left out as unconfirmed
conditions.used: PAMPA, pH 7.4
Structures can show the parent of a compound that is named as a salt.
measurement.label: Papp (×10⁻⁶ cm/s)
Please reply with the bare figure in ×10⁻⁶ cm/s and do not write the unit itself.

compound	assay.result
CC[C@@]1(O)C(=O)OCc2c1cc1n(c2=O)Cc2c-1nc1cc(F)c(C)c3c1c2[C@@H]([C@@H](CCO)NC(C)C)CC3 (single isomer, unassigned)	9.2
CC[C@@]1(O)C(=O)OCc2c1cc1n(c2=O)Cc2c-1nc1cc(F)c(C)c3c1c2[C@H]([C@@H](N)CO)CC3 (single isomer, unassigned) [Compound 16-108, hydrochloride]	0.002

Now let's try a different one.
Problem: Fill in the blank: the reported Papp of CC[C@@]1(O)C(=O)OCc2c1cc1n(c2=O)Cc2c-1nc1cc(F)c(C)c3c1c2[C@@H]([C@H](CCO)N(C)C)CC3 (single isomer, unassigned) is ____.
Result: 15.6
